Biological target: T1, ANK domain of Notch4 intracellular domain (N4ICD-ANK) (UniProt Q99466 1633-1798)
T1 construct: Notch4, ANK domain of the intracellular domain; position 1633-1798, length 166 aa printed
T1 sequence (looked up): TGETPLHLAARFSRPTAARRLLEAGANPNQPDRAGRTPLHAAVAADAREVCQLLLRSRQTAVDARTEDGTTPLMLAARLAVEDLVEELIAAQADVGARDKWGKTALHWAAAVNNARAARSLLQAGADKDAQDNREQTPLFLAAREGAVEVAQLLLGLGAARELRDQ
Experiment: SPR; BIAcore T200 (GE Healthcare); dissociation constant calculated with BIA-evaluation software; which partner was immobilised is not stated
Settings: both partners purified
pKd: −log10 of the molar value. Bridge positions count the residues as written; N and C are the ends. Square brackets hold non-standard residues; d marks the D form. Ends that are not written are not given here. S5 = C=CCCC[C@](C)(N)C(=O)O

# binder, pKd
records = [
    ("YAKRI[S5]YQLLSK[S5]L (staple 6-13) [SAH-mAH2-5, N1DARP-derived stapled peptide]", 7.45),
]
